These entries and their values trace back to paper PMC11091220.

test: Mouse hepatocyte intrinsic clearance; format: in vitro ADME; settings: male, CD-1, mouse, hepatocytes, pH 7.4, mouse hepatocytes; Table S4 source data; read-out: muHeps, Mean Clint (mL/min/10^6 cells)
ENDPOINT NAME: hepatocyte CLint at 1 µM (µL/min/1e6 cells)

Cc1ncsc1-c1ccc(CNC(=O)[C@@H]2C[C@@H](O)CN2C(=O)[C@@H](NC(=O)COCCCOCCOc2cc(F)c([C@@H]3c4[nH]c5ccccc5c4C[C@@H](C)N3CC(C)(C)F)c(F)c2)C(C)(C)C)cc1 ... 19

====

Molecular target: ERα (Homo sapiens, UniProt P03372)
Construct: endogenous in cells; host or cells: MCF7 (also MCF7 engineered to express Cas9)
Sequence (P03372 1-595): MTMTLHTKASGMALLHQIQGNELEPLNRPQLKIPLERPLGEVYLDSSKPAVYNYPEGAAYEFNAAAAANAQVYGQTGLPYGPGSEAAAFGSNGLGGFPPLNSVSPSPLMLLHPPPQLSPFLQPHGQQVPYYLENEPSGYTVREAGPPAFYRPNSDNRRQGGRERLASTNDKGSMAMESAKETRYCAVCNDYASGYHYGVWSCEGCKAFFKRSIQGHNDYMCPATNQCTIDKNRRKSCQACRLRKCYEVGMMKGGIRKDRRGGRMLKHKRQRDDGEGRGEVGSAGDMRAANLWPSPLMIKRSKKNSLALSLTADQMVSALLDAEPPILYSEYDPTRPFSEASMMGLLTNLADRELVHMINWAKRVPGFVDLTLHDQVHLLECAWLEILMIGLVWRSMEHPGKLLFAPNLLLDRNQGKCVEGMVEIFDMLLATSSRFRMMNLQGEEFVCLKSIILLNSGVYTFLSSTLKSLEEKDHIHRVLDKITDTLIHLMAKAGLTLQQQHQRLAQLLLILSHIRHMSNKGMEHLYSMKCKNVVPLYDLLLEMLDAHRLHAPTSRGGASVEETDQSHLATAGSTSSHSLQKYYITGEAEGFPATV
Experiment: ERα high throughput imaging degradation assay in MCF7 cells
Type: cell-based
Conditions: 0% vehicle control, 100% fulvestrant; MCF7; read-out: ERα imaging Dmax
Description: Cells were fixed, permeabilised and stained with anti-ERα (rabbit clone SP1, Thermo) and anti-PR (mouse clone PgR 636, Dako) antibodies followed by secondary AlexaFluor 594 goat anti-rabbit and AlexaFluor 488 goat anti-mouse IgG antibodies. Imaging was using the Thermo Cellinsight scanner and average fluorescence intensity was analysed using Genedata.
Overview of recorded Dmax for various molecules
ENDPOINT NAME: Dmax

C[C@@H]1Cc2c([nH]c3ccccc23)[C@@H](c2c(F)cc(OCCC(=O)O)cc2F)N1CC(C)(C)F ... 86%
Cc1ncsc1-c1ccc(CNC(=O)[C@@H]2C[C@@H](O)CN2C(=O)[C@@H](NC(=O)COCCOCCOCCOCCOc2cc(F)c([C@@H]3c4[nH]c5ccccc5c4C[C@@H](C)N3CC(C)(C)F)c(F)c2)C(C)(C)C)cc1 ... 101%
Cc1ncsc1-c1ccc(CNC(=O)[C@@H]2C[C@@H](O)CN2C(=O)[C@@H](NC(=O)COCCOc2cc(F)c([C@@H]3c4[nH]c5ccccc5c4C[C@@H](C)N3CC(C)(C)F)c(F)c2)C(C)(C)C)cc1 ... 89%
Cc1ncsc1-c1ccc(CNC(=O)[C@@H]2C[C@@H](O)CN2C(=O)[C@@H](NC(=O)COCCOCCOc2cc(F)c([C@@H]3c4[nH]c5ccccc5c4C[C@@H](C)N3CC(C)(C)F)c(F)c2)C(C)(C)C)cc1 ... 94%
